Entries and their IC50 values follow.
- Target desc: SIK2 (Homo sapiens (Human))
- Sequence (Q9H0K1 whole entry, species assumed): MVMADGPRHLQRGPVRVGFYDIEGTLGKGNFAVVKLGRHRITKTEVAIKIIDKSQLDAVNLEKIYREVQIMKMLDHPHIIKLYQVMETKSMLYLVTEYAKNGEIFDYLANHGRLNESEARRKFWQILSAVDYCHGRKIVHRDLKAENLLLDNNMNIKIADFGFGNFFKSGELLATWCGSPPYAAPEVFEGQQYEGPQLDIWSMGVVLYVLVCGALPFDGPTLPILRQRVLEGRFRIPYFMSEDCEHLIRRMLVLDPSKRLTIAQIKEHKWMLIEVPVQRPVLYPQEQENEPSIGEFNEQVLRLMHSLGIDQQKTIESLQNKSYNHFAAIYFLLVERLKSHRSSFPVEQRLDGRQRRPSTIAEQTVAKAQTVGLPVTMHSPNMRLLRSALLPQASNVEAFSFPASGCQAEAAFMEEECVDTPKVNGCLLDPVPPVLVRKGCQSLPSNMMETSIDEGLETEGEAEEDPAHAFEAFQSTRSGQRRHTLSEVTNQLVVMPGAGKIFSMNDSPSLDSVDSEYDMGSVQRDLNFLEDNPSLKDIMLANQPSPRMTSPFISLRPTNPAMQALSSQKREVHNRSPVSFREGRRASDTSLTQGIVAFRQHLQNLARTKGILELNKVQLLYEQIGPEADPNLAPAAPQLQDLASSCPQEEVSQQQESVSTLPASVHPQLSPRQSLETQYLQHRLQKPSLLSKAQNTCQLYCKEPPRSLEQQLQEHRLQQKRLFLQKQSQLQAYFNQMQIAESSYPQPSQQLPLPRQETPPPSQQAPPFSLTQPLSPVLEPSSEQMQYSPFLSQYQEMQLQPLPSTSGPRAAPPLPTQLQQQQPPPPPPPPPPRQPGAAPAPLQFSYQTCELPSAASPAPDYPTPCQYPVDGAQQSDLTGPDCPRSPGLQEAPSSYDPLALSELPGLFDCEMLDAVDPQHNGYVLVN
- Procedure text: SIK2 Enzymatic Assay Version 2 (High ATP)
- Type: biochemical
- Stated conditions: 3 mM ATP and 200 μM HDAC5tide final, ADP-Glo Max luminescence

Compound	Operator	IC50 (nM)
CN1CCO[C@H](COc2cnn(C)c2-c2ccn3nc(NC(=O)C4CC4)cc3c2)C1 [Example 487]	=	334
CCN1CC[C@@H]1COc1cnn(C)c1-c1ccn2nc(Nc3cc(C)nc(C(F)F)n3)cc2c1 [Example 103]	<	0.847
COCCNC(=O)c1ccc(Nc2cc3cc(-c4c(OC[C@H]5CCN5C)cnn4C)ccn3n2)nc1 [Example 107]	=	3.3
C[C@@H](O)CN1CC[C@@H]1COc1cnn(C)c1-c1ccn2nc(NC(=O)C3CC3)cc2c1 [Example 252]	=	9.4
Cc1onc(OC[C@@H]2COCCN2)c1-c1ccn2nc(NC(=O)C3CC3)cc2c1 [Example 497]	=	2530
Cc1cncc(Nc2cc3cc(-c4c(CO[C@H]5CN(C)C[C@@H]5C)cnn4C)ccn3n2)n1 [Example 373]	=	7.2
CCN1CC[C@@H]1COc1cnn(C)c1-c1ccn2nc(Nc3cnc(C)cn3)cc2c1 [Example 21]	=	0.9
[2H]C([2H])([2H])N1CC[C@@H]1COc1cnn(C)c1-c1ccn2nc(Nc3cc(C)nc(C)n3)cc2c1 [Example 290]	<	0.847
CCN1CC[C@@H]1COc1cnn(C)c1-c1ccn2nc(Nc3ccc4nccn4n3)cc2c1 [Example 175]	<	0.847
CC(=O)N1CC[C@@H]1COc1cnn(C)c1-c1ccn2nc(NC(=O)C3CC3)cc2c1 [Example 56]	=	2500
Cc1onc(OC[C@H]2C[C@@H](N)C2)c1-c1ccn2nc(NC(=O)C3CC3)cc2c1 [Example 319]	=	51.8
Cc1cc(Nc2cc3cc(-c4c(OC[C@@H]5COC(C)(C)C5)cnn4C)ccn3n2)nc(C)n1 (single isomer, unassigned) [Example 307]	=	30.9
CN1CC[C@@H]1COc1cnn(C)c1-c1ccn2nc(NC(=O)c3cnn(C)c3)cc2c1 [Example 26]	=	319
Cn1ncc(CO[C@@H]2CNC[C@H]2F)c1-c1ccn2nc(NC(=O)C3CC3)cc2c1 [Example 466]	=	80.7
CO[C@@H]1CNC[C@@H]1Oc1cnn(C)c1-c1ccn2nc(NC(=O)C3CC3)cc2c1 (stereo in doubt) [Example 232]	=	33.2
Cn1ncc(OC[C@H]2CCN2Cc2ccccc2)c1-c1ccn2nc(NC(=O)C3CC3)cc2c1 [Example 429]	=	99.9
Cc1cc(Nc2cc3cc(-c4c(OC[C@H]5CCN5C)cnn4C)ccn3n2)nnc1C [Example 17]	<	0.847
